test system: NCI-H1755; test: relative viability (nuclei count vs DMSO), 5 days (fraction); higher = more cells survive; conditions: first compound 0.04 µM
Below, each entry is listed with its recorded relative viability.
When you answer, write just the number.

input: So what relative viability did COc1cc(N2CCC(C(N)=O)CC2)ccc1Nc1nc(N)c(Cl)c(Nc2ccccc2S(=O)(=O)C(C)C)n1 [HG-5-88-01] + O=C(CCCCCCC(=O)Nc1ccccc1)NO [Vorinostat] (partner 1 µM) get with NCI-H1755?
output: 0.79

input: So what relative viability did C[C@@H]1CN(CC(=O)Nc2ccc3c(c2)Cc2cccc(-c4cc(=O)cc(N5CCOCC5)o4)c2S3)C[C@H](C)O1 + O=C(c1cc(Cc2n[nH]c(=O)c3ccccc23)ccc1F)N1CCN(C(=O)C2CC2)CC1 [Olaparib] (partner 8 µM) get with NCI-H1755?
output: 0.845

input: So what relative viability did C[C@@H]1CN(CC(=O)Nc2ccc3c(c2)Cc2cccc(-c4cc(=O)cc(N5CCOCC5)o4)c2S3)C[C@H](C)O1 + C[C@]1(O)C[C@@H](c2nc(-c3ccc4ccc(-c5ccccc5)nc4c3)c3c(N)nccn32)C1 [Linsitinib] (partner 1 µM) get with NCI-H1755?
output: 1.01

input: So what relative viability did C[C@@H]1CN(CC(=O)Nc2ccc3c(c2)Cc2cccc(-c4cc(=O)cc(N5CCOCC5)o4)c2S3)C[C@H](C)O1 + N=C(N)NC(=N)NCCc1ccccc1 [Phenformin] (partner 250 µM) get with NCI-H1755?
output: 0.611

input: So what relative viability did Clc1ccc(Nc2nnc(Cc3ccncc3)c3ccccc23)cc1 [Vatalanib] + CS(=O)(=O)N1CCN(Cc2cc3nc(-c4cccc5[nH]ncc45)nc(N4CCOCC4)c3s2)CC1 [Pictilisib] (partner 1 µM) get with NCI-H1755?
output: 0.405

input: So what relative viability did Clc1ccc(Nc2nnc(Cc3ccncc3)c3ccccc23)cc1 [Vatalanib] + Nc1ncn([C@H]2C[C@H](O)[C@@H](CO)O2)c(=O)n1 [Decitabine] (partner 2 µM) get with NCI-H1755?
output: 0.691

input: So what relative viability did C[C@@H]1CN(CC(=O)Nc2ccc3c(c2)Cc2cccc(-c4cc(=O)cc(N5CCOCC5)o4)c2S3)C[C@H](C)O1 + CC1(C)CCC(c2ccc(Cl)cc2)=C(CN2CCN(c3ccc(C(=O)NS(=O)(=O)c4ccc(N[C@H](CCN5CCOCC5)CSc5ccccc5)c(S(=O)(=O)C(F)(F)F)c4)cc3)CC2)C1 [Navitoclax] (partner 0.5 µM) get with NCI-H1755?
output: 1.02

input: So what relative viability did C[C@@H]1CN(CC(=O)Nc2ccc3c(c2)Cc2cccc(-c4cc(=O)cc(N5CCOCC5)o4)c2S3)C[C@H](C)O1 + C[C@@H](Oc1cc(-c2cnn(C3CCNCC3)c2)cnc1N)c1c(Cl)ccc(F)c1Cl [Crizotinib] (partner 1 µM) get with NCI-H1755?
output: 0.92

input: So what relative viability did C[C@@H]1CN(CC(=O)Nc2ccc3c(c2)Cc2cccc(-c4cc(=O)cc(N5CCOCC5)o4)c2S3)C[C@H](C)O1 + Nc1ncn([C@H]2C[C@H](O)[C@@H](CO)O2)c(=O)n1 [Decitabine] (partner 2 µM) get with NCI-H1755?
output: 0.708

input: So what relative viability did COc1cc(N2CCC(C(N)=O)CC2)ccc1Nc1nc(N)c(Cl)c(Nc2ccccc2S(=O)(=O)C(C)C)n1 [HG-5-88-01] + COc1cc2c(Oc3ccc(NC(=O)C4(C(=O)Nc5ccc(F)cc5)CC4)cc3F)ccnc2cc1OCCCN1CCOCC1 [Foretinib] (partner 0.25 µM) get with NCI-H1755?
output: 0.876

###

system: EPLC-272H; test: relative viability (nuclei count vs DMSO), 5 days (fraction); higher = more cells survive; conditions: first compound 0.04 µM
metric-name: relative viability
When you answer, write just the number.

input: For the compound COc1cc(N2CCC(C(N)=O)CC2)ccc1Nc1nc(N)c(Cl)c(Nc2ccccc2S(=O)(=O)C(C)C)n1 [HG-5-88-01] + Nc1ncn([C@H]2C[C@H](O)[C@@H](CO)O2)c(=O)n1 [Decitabine] (partner 2 µM) , what relative viability is on record?
output: 0.32

input: For the compound COc1cc(N2CCC(C(N)=O)CC2)ccc1Nc1nc(N)c(Cl)c(Nc2ccccc2S(=O)(=O)C(C)C)n1 [HG-5-88-01] + C[C@]1(O)C[C@@H](c2nc(-c3ccc4ccc(-c5ccccc5)nc4c3)c3c(N)nccn32)C1 [Linsitinib] (partner 1 µM) , what relative viability is on record?
output: 1.09

input: For the compound Clc1ccc(Nc2nnc(Cc3ccncc3)c3ccccc23)cc1 [Vatalanib] + CS(=O)(=O)CCNCc1ccc(-c2ccc3ncnc(Nc4ccc(OCc5cccc(F)c5)c(Cl)c4)c3c2)o1 [Lapatinib] (partner 2 µM) , what relative viability is on record?
output: 0.931

input: For the compound COc1cc(N2CCC(C(N)=O)CC2)ccc1Nc1nc(N)c(Cl)c(Nc2ccccc2S(=O)(=O)C(C)C)n1 [HG-5-88-01] + CC(C)C[C@H](NC(=O)[C@H](Cc1ccccc1)NC(=O)c1cnccn1)B(O)O [Bortezomib] (partner 0.002 µM) , what relative viability is on record?
output: 0.854

###

system: NCI-H2170; assay: relative viability (nuclei count vs DMSO), 5 days (fraction); higher = more cells survive; conditions: first compound 0.08 µM
The threshold is 0.6. Values of relative viability beneath it are tagged condition met; values meeting or exceeding it are tagged condition not met.

These solved cases illustrate the format of a correct answer.
{"compound": "CCCCCCCCCCCC1=C(O)C(=O)C=C(O)C1=O [Embelin] + Nc1ncn([C@H]2C[C@H](O)[C@@H](CO)O2)c(=O)n1 [Decitabine] (partner 2 µM)", "class-name": "condition met"}
{"compound": "CCCCCCCCCCCC1=C(O)C(=O)C=C(O)C1=O [Embelin] + CC(=O)Nc1cccc(-n2c(=O)n(C3CC3)c(=O)c3c(Nc4ccc(I)cc4F)n(C)c(=O)c(C)c32)c1 [Trametinib] (partner 0.02 µM)", "class-name": "condition not met"}
{"compound": "CCCCCCCCCCCC1=C(O)C(=O)C=C(O)C1=O [Embelin] + CC1(C)CCC(c2ccc(Cl)cc2)=C(CN2CCN(c3ccc(C(=O)NS(=O)(=O)c4ccc(N[C@H](CCN5CCOCC5)CSc5ccccc5)c(S(=O)(=O)C(F)(F)F)c4)cc3)CC2)C1 [Navitoclax] (partner 0.5 µM)", "class-name": "condition not met"}
{"compound": "CCCCCCCCCCCC1=C(O)C(=O)C=C(O)C1=O [Embelin] + NC(=O)Nc1cc(-c2cccc(F)c2)sc1C(=O)N[C@H]1CCCNC1 [AZD7762] (partner 0.2 µM)", "class-name": "condition not met"}
{"compound": "CCCCCCCCCCCC1=C(O)C(=O)C=C(O)C1=O [Embelin] + Cc1nc(Nc2ncc(C(=O)Nc3c(C)cccc3Cl)s2)cc(N2CCN(CCO)CC2)n1 [Dasatinib] (partner 0.075 µM)", "class-name": "condition not met"}
{"compound": "CCCCCCCCCCCC1=C(O)C(=O)C=C(O)C1=O [Embelin] + CCNC(=O)c1noc(-c2cc(C(C)C)c(O)cc2O)c1-c1ccc(CN2CCOCC2)cc1 [Luminespib] (partner 0.01 µM)", "class-name": "condition not met"}
{"compound": "CCCCCCCCCCCC1=C(O)C(=O)C=C(O)C1=O [Embelin] + C[C@@H](Oc1cc(-c2cnn(C3CCNCC3)c2)cnc1N)c1c(Cl)ccc(F)c1Cl [Crizotinib] (partner 1 µM)", "class-name": "condition not met"}

input: Confirm or reject: relative viability of CCCCCCCCCCCC1=C(O)C(=O)C=C(O)C1=O [Embelin] + CC(=O)c1c(C)c2cnc(Nc3ccc(N4CCNCC4)cn3)nc2n(C2CCCC2)c1=O [Palbociclib] (partner 0.5 µM) lies strictly below 0.6
output: condition met

###

test system: NCI-H1651; assay: relative viability (nuclei count vs DMSO), 5 days (fraction); higher = more cells survive; settings: first compound 0.1265 µM
metric-name: relative viability

Observe how each entry below is paired with its result.
{"compound": "Clc1ccc(Nc2nnc(Cc3ccncc3)c3ccccc23)cc1 [Vatalanib] + CCNC(=O)c1noc(-c2cc(C(C)C)c(O)cc2O)c1-c1ccc(CN2CCOCC2)cc1 [Luminespib] (partner 0.01 µM)", "relative viability": 0.891}
{"compound": "Clc1ccc(Nc2nnc(Cc3ccncc3)c3ccccc23)cc1 [Vatalanib] + Cc1cc(Nc2cc(N3CCN(C)CC3)nc(Sc3ccc(NC(=O)C4CC4)cc3)n2)n[nH]1 [Tozasertib] (partner 0.1 µM)", "relative viability": 0.668}

Now for the compound whose relative viability we want.
input: For the compound Clc1ccc(Nc2nnc(Cc3ccncc3)c3ccccc23)cc1 [Vatalanib] + COc1cc2c(Oc3ccc(NC(=O)C4(C(=O)Nc5ccc(F)cc5)CC4)cc3F)ccnc2cc1OCCCN1CCOCC1 [Foretinib] (partner 0.25 µM) , what relative viability is on record?
output: 0.768
